- TGT: p110δ/p85α (Homo sapiens, UniProt O00329)
- Sequence (O00329 whole entry): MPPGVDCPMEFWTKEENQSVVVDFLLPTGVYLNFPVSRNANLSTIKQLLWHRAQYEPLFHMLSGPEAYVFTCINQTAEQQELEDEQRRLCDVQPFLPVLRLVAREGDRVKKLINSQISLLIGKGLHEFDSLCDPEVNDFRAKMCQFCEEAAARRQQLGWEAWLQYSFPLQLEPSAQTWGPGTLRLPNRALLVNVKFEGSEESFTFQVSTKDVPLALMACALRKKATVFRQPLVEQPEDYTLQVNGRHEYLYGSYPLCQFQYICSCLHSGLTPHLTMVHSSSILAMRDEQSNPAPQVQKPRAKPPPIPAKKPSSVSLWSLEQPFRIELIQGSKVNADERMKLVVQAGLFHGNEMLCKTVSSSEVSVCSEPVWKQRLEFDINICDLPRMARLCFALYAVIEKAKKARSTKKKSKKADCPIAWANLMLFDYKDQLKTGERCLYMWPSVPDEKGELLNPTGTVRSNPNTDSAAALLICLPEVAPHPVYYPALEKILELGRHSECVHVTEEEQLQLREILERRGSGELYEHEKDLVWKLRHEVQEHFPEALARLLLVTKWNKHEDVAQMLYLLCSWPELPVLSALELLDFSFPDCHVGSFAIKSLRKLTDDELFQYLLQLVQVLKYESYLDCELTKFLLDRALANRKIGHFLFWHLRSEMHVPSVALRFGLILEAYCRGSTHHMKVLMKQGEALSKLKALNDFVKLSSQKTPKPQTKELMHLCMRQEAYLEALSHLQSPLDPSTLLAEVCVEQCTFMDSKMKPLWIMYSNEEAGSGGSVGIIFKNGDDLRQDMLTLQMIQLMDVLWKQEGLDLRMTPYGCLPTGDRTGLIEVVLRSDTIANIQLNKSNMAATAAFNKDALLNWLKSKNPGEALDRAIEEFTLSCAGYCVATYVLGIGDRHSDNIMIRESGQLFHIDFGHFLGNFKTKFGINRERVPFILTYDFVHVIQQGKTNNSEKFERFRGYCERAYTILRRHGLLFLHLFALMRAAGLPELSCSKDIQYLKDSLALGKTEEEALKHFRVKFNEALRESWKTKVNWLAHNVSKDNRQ
- Sequence (P27986 whole entry partner): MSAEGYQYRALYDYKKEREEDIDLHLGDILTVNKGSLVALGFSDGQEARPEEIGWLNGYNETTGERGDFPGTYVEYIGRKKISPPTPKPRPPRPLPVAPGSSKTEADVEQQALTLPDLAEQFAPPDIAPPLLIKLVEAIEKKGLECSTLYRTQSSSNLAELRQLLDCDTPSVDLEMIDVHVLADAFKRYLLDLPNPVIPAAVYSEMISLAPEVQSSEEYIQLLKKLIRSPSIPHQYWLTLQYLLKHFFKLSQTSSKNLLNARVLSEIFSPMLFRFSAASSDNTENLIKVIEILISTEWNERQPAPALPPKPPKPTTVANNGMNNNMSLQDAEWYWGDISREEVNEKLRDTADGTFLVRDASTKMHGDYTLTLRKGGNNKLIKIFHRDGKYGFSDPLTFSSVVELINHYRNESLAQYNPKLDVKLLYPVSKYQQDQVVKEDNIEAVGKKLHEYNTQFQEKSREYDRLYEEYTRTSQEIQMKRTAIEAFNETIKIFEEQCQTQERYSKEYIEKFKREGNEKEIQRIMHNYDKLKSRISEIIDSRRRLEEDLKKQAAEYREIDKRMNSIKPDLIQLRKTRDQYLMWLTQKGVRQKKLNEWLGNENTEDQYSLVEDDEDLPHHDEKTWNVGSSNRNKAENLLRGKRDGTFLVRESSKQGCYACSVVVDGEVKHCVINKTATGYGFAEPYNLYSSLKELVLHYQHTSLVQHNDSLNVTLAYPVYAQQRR
- MEASUREMENT_NOTES: Transcreener KINASE Assay, kinase inhibition of p110δ/p85α
- Assay type: biochemical
- CONDITION_CONTEXT: 1 uM test compound
ENDPOINT_NAME: PI3Kδ IH % @ 1 uM (%)

// below: answered compounds
>  <COMPOUND>
CC(Nc1ncnc2[nH]cnc12)c1cn2cccc2c(=O)n1-c1ccccc1 (stereo not drawn) [Compound 83]

>  <PI3Kδ IH % @ 1 uM (%)>
97.3

$$$$
>  <COMPOUND>
N#Cc1cnc(N)nc1N1CCC[C@H]1c1nn2ccc(Cl)c2c(=O)n1C1CCC1 [Compound 376]

>  <PI3Kδ IH % @ 1 uM (%)>
99.1

$$$$

I: CC(Nc1ncnc2[nH]cc(S(C)(=O)=O)c12)c1cn2ccc(Cl)c2c(=O)n1-c1ccccc1 (stereo not drawn) [Compound 269]
II: CSc1n[nH]c2ncnc(N3CC[C@H]3c3nn4ccc(Cl)c4c(=O)n3-c3ccccc3)c12 [Compound 222]
// compare: I vs II , metric PI3Kδ IH % @ 1 uM, want the smaller Response format: the label of the selected entry.
II
(II: 43.0%, I: 94.7%)

Origin of the recorded values: patent US20150307520A1
